procedure-details: Terminal half life in psychotic patient (9 patients) at 2.9 +/- 1.2 mg, po by reversed phase HPLC method
Format: ADME, organism-based
measurement-parameters: human, in vivo, 2.9 mg, read-out: beta t1/2 (converted)
measurement-name: half-life (h)
Give just the number in h; leave the unit off.

[Q] Please give the measured half-life for this compound: `O=C(CCCN1CCC(O)(c2ccc(Cl)cc2)CC1)c1ccc(F)cc1`
[A] 18.1

* * *

procedure-details: Volume of distribution at steady state in psychotic patient (9 patients) at 3.5 +/- 1.2 mg, iv by reversed phase HPLC method
Assay type: ADME, organism-based
measurement-parameters: human, in vivo, 3.5 mg, read-out: Vdss
measurement-name: Vd (L/kg)
Hi! Could you send only the number? It should be in L/kg, unit omitted.

[Q] Return reported Vd; argument: O=C(CCCN1CCC(O)(c2ccc(Cl)cc2)CC1)c1ccc(F)cc1 [HALOPERIDOL]
[A] 7.9

* * *

procedure-details: Terminal phase volume of distribution at steady state in psychotic patient (9 patients) at 3.5 +/- 1.2 mg, iv by reversed phase HPLC method based model-dependent approach analysis
Type: ADME, organism-based
measurement-parameters: human, in vivo, 3.5 mg, read-out: Vbeta
measurement-name: Vd (L/kg)
Number in L/kg, nothing else.

[Q] Any idea what Vd was measured for `O=C(CCCN1CCC(O)(c2ccc(Cl)cc2)CC1)c1ccc(F)cc1` ?
[A] 9.6

* * *

procedure-details: Terminal half life in psychotic patient (9 patients) at 3.5 +/- 1.2 mg, iv by reversed phase HPLC method
Type: ADME, organism-based
measurement-parameters: human, in vivo, 3.5 mg, read-out: beta t1/2 (converted)
measurement-name: half-life (h)
Number only, in h; omit the unit.

[Q] Would you kindly share the measured half-life for O=C(CCCN1CCC(O)(c2ccc(Cl)cc2)CC1)c1ccc(F)cc1 [HALOPERIDOL] ?
[A] 18.8

* * *

procedure-details: Unbound fraction in human serum
Assay type: ADME, cell-free
measurement-name: fraction unbound
Just the number, please, no unit after it.

[Q] // query fraction unbound value for entry `O=C(CCCN1CCC(O)(c2ccc(Cl)cc2)CC1)c1ccc(F)cc1`
[A] 0.08

* * *

procedure-details: Terminal phase volume of distribution at steady state in psychotic patient (9 patients) at 3.5 +/- 1.2 mg, iv by reversed phase HPLC method
Assay type: ADME, organism-based
measurement-parameters: human, in vivo, 3.5 mg, read-out: Vbeta
measurement-name: Vd

[Q] Vd lookup needed for O=C(CCCN1CCC(O)(c2ccc(Cl)cc2)CC1)c1ccc(F)cc1 [HALOPERIDOL] , thanks.
[A] 9.5 L/kg
